Test system: MCG803
measurement_notes: Cancer cell growth inhibition (CellTiter-Glo), MCG803
Type: cell-based, Human
study_conditions: Gastric Cancer, MCG803, 72 h treatment
property_name: IC50

compound="N.N.[Cl][Pt][Cl] [Cisplatin, reference compound]" property_name=IC50 value_reported="5.08 µM"

* * *

measurement_target: Human HDAC2 (Homo sapiens)
Construct: Full length with C-terminal His tag, MW=60 kDa; His (C); purchased BioMol SE-500; host or cells: Sf9 cells, baculovirus
Sequence (Q92769 whole entry): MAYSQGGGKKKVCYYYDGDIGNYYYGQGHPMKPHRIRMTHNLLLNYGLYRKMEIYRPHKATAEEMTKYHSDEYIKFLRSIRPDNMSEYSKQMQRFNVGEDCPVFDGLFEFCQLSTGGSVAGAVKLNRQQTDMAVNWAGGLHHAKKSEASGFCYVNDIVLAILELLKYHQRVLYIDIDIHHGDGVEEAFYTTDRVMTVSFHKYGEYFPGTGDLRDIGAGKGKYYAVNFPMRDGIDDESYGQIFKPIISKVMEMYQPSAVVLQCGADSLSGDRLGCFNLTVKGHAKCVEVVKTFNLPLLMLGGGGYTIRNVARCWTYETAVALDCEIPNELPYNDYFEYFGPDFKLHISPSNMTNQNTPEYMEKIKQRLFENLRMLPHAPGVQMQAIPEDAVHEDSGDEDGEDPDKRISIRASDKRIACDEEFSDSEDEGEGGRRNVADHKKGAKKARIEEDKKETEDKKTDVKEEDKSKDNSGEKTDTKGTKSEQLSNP
measurement_notes: In vitro HDAC2 inhibition, fluorogenic peptide assay
Type: biochemical
study_conditions: read-out: IC50 (nM) of enzyme activity HDAC2
property_name: IC50 (nM)

compound="O=C(CCCCCNC(=O)c1[nH]c(-c2ccc(O)cc2)cc1-c1ccsc1)NO [Example 6]" measurement_target="Human HDAC2 (Homo sapiens)" value_reported=203
compound="O=C(CCCCCNC(=O)c1[nH]c(-c2ccsc2)cc1-c1ccc(O)cc1)NO [Example 3]" measurement_target="Human HDAC2 (Homo sapiens)" value_reported=1270
compound="O=C(CCCCCNC(=O)c1[nH]c(-c2ccoc2)cc1-c1ccc(O)cc1)NO [Example 4]" measurement_target="Human HDAC2 (Homo sapiens)" value_reported=864
compound="O=C(CCCCCNC(=O)c1[nH]c(-c2ccc(O)cc2)cc1-c1ccccc1)NO [Example 2]" measurement_target="Human HDAC2 (Homo sapiens)" value_reported=396
compound="COc1ccc(-c2cc(-c3ccccc3)[nH]c2C(=O)NCCCCCC(=O)NO)cc1 [Compound A, reference compound]" measurement_target="Human HDAC2 (Homo sapiens)" value_reported=1290
compound="O=C(CCCCCNC(=O)c1[nH]c(-c2ccccc2)cc1-c1ccc(O)cc1)NO [Example 1]" measurement_target="Human HDAC2 (Homo sapiens)" value_reported=1140
compound="O=C(CCCCCNC(=O)c1[nH]c(-c2ccc(O)cc2)cc1-c1ccoc1)NO [Example 5]" measurement_target="Human HDAC2 (Homo sapiens)" value_reported=56
compound="COc1ccc(-c2cc(-c3ccccc3)c(C(=O)NCCCCCC(=O)NO)[nH]2)cc1 [Compound B, reference compound]" measurement_target="Human HDAC2 (Homo sapiens)" value_reported=918

* * *

measurement_target: Human HDAC1 (Homo sapiens, UniProt Q13547)
Construct: Full length with C-terminal GST tag, MW=79.9 kDa; GST (C); purchased BioMol SE-456; host or cells: Sf9 cells, baculovirus
Sequence (Q13547 whole entry): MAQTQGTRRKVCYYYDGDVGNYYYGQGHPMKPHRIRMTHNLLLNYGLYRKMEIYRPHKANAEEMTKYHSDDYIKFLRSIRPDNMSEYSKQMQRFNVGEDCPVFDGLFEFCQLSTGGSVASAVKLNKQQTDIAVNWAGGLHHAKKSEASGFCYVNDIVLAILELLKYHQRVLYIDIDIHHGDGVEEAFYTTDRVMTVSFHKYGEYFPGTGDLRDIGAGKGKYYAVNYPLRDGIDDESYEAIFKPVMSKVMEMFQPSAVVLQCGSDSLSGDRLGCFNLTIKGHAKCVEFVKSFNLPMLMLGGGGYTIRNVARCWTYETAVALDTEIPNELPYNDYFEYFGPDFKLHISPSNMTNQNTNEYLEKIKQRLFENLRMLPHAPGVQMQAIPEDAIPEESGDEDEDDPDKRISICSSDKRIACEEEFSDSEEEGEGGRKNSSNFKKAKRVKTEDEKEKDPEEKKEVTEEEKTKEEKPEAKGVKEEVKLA
measurement_notes: In vitro HDAC1 inhibition, fluorogenic peptide assay
Format: biochemical
study_conditions: read-out: IC50 (nM) of enzyme activity HDAC1
Binarize IC50 at 300 nM; below is Yes, at or above is No.

compound=O=C(CCCCCNC(=O)c1[nH]c(-c2ccc(O)cc2)cc1-c1ccccc1)NO category=Yes
compound=O=C(CCCCCNC(=O)c1[nH]c(-c2ccsc2)cc1-c1ccc(O)cc1)NO category=No
compound=O=C(CCCCCNC(=O)c1[nH]c(-c2ccc(O)cc2)cc1-c1ccsc1)NO category=Yes
compound=O=C(CCCCCNC(=O)c1[nH]c(-c2ccccc2)cc1-c1ccc(O)cc1)NO category=No
compound="COc1ccc(-c2cc(-c3ccccc3)[nH]c2C(=O)NCCCCCC(=O)NO)cc1 [Compound A, reference compound]" category=No
compound=O=C(CCCCCNC(=O)c1[nH]c(-c2ccc(O)cc2)cc1-c1ccoc1)NO category=Yes
compound="COc1ccc(-c2cc(-c3ccccc3)c(C(=O)NCCCCCC(=O)NO)[nH]2)cc1 [Compound B, reference compound]" category=Yes
compound=O=C(CCCCCNC(=O)c1[nH]c(-c2ccoc2)cc1-c1ccc(O)cc1)NO category=No

* * *

Test system: HT-1080
measurement_notes: Cancer cell growth inhibition (CellTiter-Glo), HT-1080
Format: cell-based
study_conditions: Homo sapiens; Fibrosarcoma, HT-1080, 72 h treatment
Binarize IC50 at 3 µM; below is YES, at or above is NO.

compound=O=C(CCCCCNC(=O)c1[nH]c(-c2ccc(O)cc2)cc1-c1ccsc1)NO category=NO
compound=O=C(CCCCCNC(=O)c1[nH]c(-c2ccc(O)cc2)cc1-c1ccoc1)NO category=NO
compound="COc1cccc2c1C(=O)c1c(O)c3c(c(O)c1C2=O)C[C@@](O)(C(=O)CO)C[C@@H]3O[C@H]1C[C@H](N)[C@H](O)[C@H](C)O1 [Doxorubicin, reference compound]" category=YES
compound=O=C(CCCCCNC(=O)c1[nH]c(-c2ccc(O)cc2)cc1-c1ccccc1)NO category=NO

* * *

System: K562
measurement_notes: Cancer cell growth inhibition (CellTiter-Glo), K562
Format: cell-based, Human
study_conditions: CML, K562, 72 h treatment
property_name: IC50 (µM)

compound="N.N.[Cl][Pt][Cl] [Cisplatin, reference compound]" value_reported=14.8

* * *

Tested on: PANC-1
measurement_notes: Cancer cell growth inhibition (CellTiter-Glo), PANC-1
Assay type: cell-based, Human
study_conditions: Homo sapiens; Pancreatic Cancer, PANC-1, 72 h treatment
Measured IC50 of individual entries
property_name: IC50 (µM)

mol_smiles=O=C(CCCCCNC(=O)c1[nH]c(-c2ccccc2)cc1-c1ccc(O)cc1)NO value_reported=6.04
mol_smiles=O=C(CCCCCNC(=O)c1[nH]c(-c2ccc(O)cc2)cc1-c1ccsc1)NO value_reported=22.2
mol_smiles=O=C(CCCCCNC(=O)c1[nH]c(-c2ccc(O)cc2)cc1-c1ccoc1)NO value_reported=29.2
mol_smiles=O=C(CCCCCNC(=O)c1[nH]c(-c2ccc(O)cc2)cc1-c1ccccc1)NO value_reported=27.7

* * *

System: U-87MG
measurement_notes: Cancer cell growth inhibition (CellTiter-Glo), U-87MG
Assay type: cell-based, Human
study_conditions: Glioblastoma, 72 h treatment
Description: Cell culture-based assays were used to evaluate the ability of compounds of the invention to inhibit cancer cell growth. Cells were obtained from the American Type Culture Collection (ATCC). Cells were cultured at 37° C. with 5% CO2 in the appropriate growth medium (see table below), and harvested respectively during the logarithmic growth period and counted with hemocytometer. The cell viability was examined by trypan blue exclusion. […]
property_name: IC50 (µM)

molecule="N.N.[Cl][Pt][Cl] [Cisplatin, reference compound]" value_reported=4.76

* * *

Test system: MIAPaCa-2
measurement_notes: Cancer cell growth inhibition (CellTiter-Glo), MIAPaCa-2
Type: cell-based
study_conditions: Homo sapiens, MIA PaCa-2; Pancreatic Cancer, MIAPaCa-2, 72 h treatment
Measured IC50 of individual entries
property_name: IC50 (µM)

molecule="CO[C@@]12[C@H](COC(N)=O)C3=C(C(=O)C(C)=C(N)C3=O)N1C[C@@H]1N[C@@H]12 [Mitomycin, reference compound]" value_reported=0.63
molecule="O=C(CCCCCNC(=O)c1[nH]c(-c2ccc(O)cc2)cc1-c1ccsc1)NO [Example 6]" value_reported=2.49
molecule="O=C(CCCCCNC(=O)c1[nH]c(-c2ccc(O)cc2)cc1-c1ccoc1)NO [Example 5]" value_reported=1.59
molecule="O=C(CCCCCNC(=O)c1[nH]c(-c2ccc(O)cc2)cc1-c1ccccc1)NO [Example 2]" value_reported=4.08
molecule="O=C(CCCCCNC(=O)c1[nH]c(-c2ccccc2)cc1-c1ccc(O)cc1)NO [Example 1]" value_reported=2.75

* * *

Measured IC50 of individual entries
Tested on: 143b
measurement_notes: Cancer cell growth inhibition (CellTiter-Glo), 143b
Format: cell-based
study_conditions: Homo sapiens, Osteosarcoma, 72 h treatment
property_name: IC50 (µM)

compound=O=C(CCCCCNC(=O)c1[nH]c(-c2ccc(O)cc2)cc1-c1ccccc1)NO measurement_target=143b property_name=IC50 value_reported=5.38
compound=O=C(CCCCCNC(=O)c1[nH]c(-c2ccc(O)cc2)cc1-c1ccsc1)NO measurement_target=143b property_name=IC50 value_reported=2.72
compound="CO[C@@]12[C@H](COC(N)=O)C3=C(C(=O)C(C)=C(N)C3=O)N1C[C@@H]1N[C@@H]12 [Mitomycin, reference compound]" measurement_target=143b property_name=IC50 value_reported=0.64
compound=O=C(CCCCCNC(=O)c1[nH]c(-c2ccccc2)cc1-c1ccc(O)cc1)NO measurement_target=143b property_name=IC50 value_reported=1.71
compound=O=C(CCCCCNC(=O)c1[nH]c(-c2ccc(O)cc2)cc1-c1ccoc1)NO measurement_target=143b property_name=IC50 value_reported=2.91

* * *

Test system: SK-MEL-5
measurement_notes: Cancer cell growth inhibition (CellTiter-Glo), SK-MEL-5
Format: cell-based, Human
study_conditions: Melanoma, SK-MEL-5, 72 h treatment
property_name: IC50 (µM)

molecule="N.N.[Cl][Pt][Cl] [Cisplatin, reference compound]" property_name=IC50 measure_unit=µM value_reported=5.81

* * *

Measured IC50 of individual entries
measurement_target: Human HDAC8 (Homo sapiens, UniProt Q9BY41)
Construct: Full length, MW=42 kDa, expressed in an E. coli expression system; purchased BioMol SE-145; host or cells: E. coli
Sequence (Q9BY41 whole entry): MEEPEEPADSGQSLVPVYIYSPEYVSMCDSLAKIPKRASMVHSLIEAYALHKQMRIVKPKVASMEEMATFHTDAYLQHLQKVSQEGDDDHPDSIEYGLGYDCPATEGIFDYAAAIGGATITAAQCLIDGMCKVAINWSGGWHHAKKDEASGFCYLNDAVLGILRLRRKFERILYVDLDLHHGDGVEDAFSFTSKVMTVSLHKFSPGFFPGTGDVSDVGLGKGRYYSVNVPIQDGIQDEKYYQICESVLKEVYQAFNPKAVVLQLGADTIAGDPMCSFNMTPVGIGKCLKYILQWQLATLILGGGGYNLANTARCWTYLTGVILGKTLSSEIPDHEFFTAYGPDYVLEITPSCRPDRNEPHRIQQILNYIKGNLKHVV
measurement_notes: In vitro HDAC8 inhibition, fluorogenic peptide assay
Format: biochemical
study_conditions: read-out: IC50 (nM) of enzyme activity HDAC8
property_name: IC50 (nM)

molecule=O=C(CCCCCNC(=O)c1[nH]c(-c2ccc(O)cc2)cc1-c1ccsc1)NO measurement_target="Human HDAC8 (Homo sapiens, UniProt Q9BY41)" property_name=IC50 value_reported=104
molecule=O=C(CCCCCNC(=O)c1[nH]c(-c2ccc(O)cc2)cc1-c1ccccc1)NO measurement_target="Human HDAC8 (Homo sapiens, UniProt Q9BY41)" property_name=IC50 value_reported=162
molecule=O=C(CCCCCNC(=O)c1[nH]c(-c2ccsc2)cc1-c1ccc(O)cc1)NO measurement_target="Human HDAC8 (Homo sapiens, UniProt Q9BY41)" property_name=IC50 value_reported=975
molecule=O=C(CCCCCNC(=O)c1[nH]c(-c2ccoc2)cc1-c1ccc(O)cc1)NO measurement_target="Human HDAC8 (Homo sapiens, UniProt Q9BY41)" property_name=IC50 value_reported=591
molecule="COc1ccc(-c2cc(-c3ccccc3)[nH]c2C(=O)NCCCCCC(=O)NO)cc1 [Compound A, reference compound]" measurement_target="Human HDAC8 (Homo sapiens, UniProt Q9BY41)" property_name=IC50 value_reported=192
molecule="COc1ccc(-c2cc(-c3ccccc3)c(C(=O)NCCCCCC(=O)NO)[nH]2)cc1 [Compound B, reference compound]" measurement_target="Human HDAC8 (Homo sapiens, UniProt Q9BY41)" property_name=IC50 value_reported=174
molecule=O=C(CCCCCNC(=O)c1[nH]c(-c2ccccc2)cc1-c1ccc(O)cc1)NO measurement_target="Human HDAC8 (Homo sapiens, UniProt Q9BY41)" property_name=IC50 value_reported=767
molecule=O=C(CCCCCNC(=O)c1[nH]c(-c2ccc(O)cc2)cc1-c1ccoc1)NO measurement_target="Human HDAC8 (Homo sapiens, UniProt Q9BY41)" property_name=IC50 value_reported=278
